- tested on: Insulin-like growth factor-binding protein 5 (Homo sapiens, UniProt P24593)
- Sequence (P24593 whole entry): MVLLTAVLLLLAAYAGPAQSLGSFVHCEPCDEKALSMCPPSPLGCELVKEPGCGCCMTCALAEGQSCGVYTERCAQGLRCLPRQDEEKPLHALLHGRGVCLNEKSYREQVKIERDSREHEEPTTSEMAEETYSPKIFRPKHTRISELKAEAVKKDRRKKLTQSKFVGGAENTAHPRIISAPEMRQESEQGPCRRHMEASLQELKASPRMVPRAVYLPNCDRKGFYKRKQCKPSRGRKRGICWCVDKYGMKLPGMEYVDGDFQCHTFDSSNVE
- assay: Dissociation constant in DMSO binding to Insulin-like growth factor binding protein 5 at the residue R87
readout type: pKd
In plain terms, pKd is the concentration in mol/L turned into minus its base-10 logarithm.

In: Entry O=C(N[C@H](Cc1ccc(OP(=O)(O)O)cc1)C(=O)O)OCC1c2ccccc2-c2ccccc21 : reported pKd = ?
Out: 2.79

---

- tested on: Insulin-like growth factor-binding protein 5 (Homo sapiens)
- assay: Dissociation constant in DMSO binding to Insulin-like growth factor binding protein 5 at the residue L81
readout type: Kd (µM)
Give the quantity in µM, number only.

In: Entry O=C(N[C@H](Cc1ccc(OP(=O)(O)O)cc1)C(=O)O)OCC1c2ccccc2-c2ccccc21 : reported Kd = ?
Out: 2780

---

- tested on: Insulin-like growth factor-binding protein 5 (Homo sapiens, UniProt P24593)
- assay: Dissociation constant in PBS binding to Insulin-like growth factor binding protein 5 at the residue L81
readout type: pKd
In plain terms, pKd is the concentration in mol/L turned into minus its base-10 logarithm.

In: Form field - read-out: pKd; system: Insulin-like growth factor-binding protein 5 (Homo sapiens, UniProt P24593); submitted item: O=C(N[C@H](Cc1ccc(OP(=O)(O)O)cc1)C(=O)O)OCC1c2ccccc2-c2ccccc21
Out: 2.54

---

- tested on: Insulin-like growth factor-binding protein 5 (Homo sapiens, UniProt P24593)
- assay: Dissociation constant in DMSO binding to Insulin-like growth factor binding protein 5 at the residue L73
readout type: Kd (mM)
Give the quantity in mM, number only.

In: Entry O=C(N[C@H](Cc1ccc(OP(=O)(O)O)cc1)C(=O)O)OCC1c2ccccc2-c2ccccc21 : reported Kd = ?
Out: 1.31

---

- tested on: Insulin-like growth factor-binding protein 5 (Homo sapiens, UniProt P24593)
- assay: Dissociation constant in PBS binding to Insulin-like growth factor binding protein 5 at the residue Y50
readout type: Kd (µM)
Give the quantity in µM, number only.

In: Entry O=C(N[C@H](Cc1ccc(OP(=O)(O)O)cc1)C(=O)O)OCC1c2ccccc2-c2ccccc21 : reported Kd = ?
Out: 1820

---

- tested on: Insulin-like growth factor-binding protein 5 (Homo sapiens)
- assay: Dissociation constant in BS binding to Insulin-like growth factor binding protein 5 at the residue K91
readout type: Kd (mM)
Give the quantity in mM, number only.

In: Entry C[S+](C)[O-] [DIMETHYL SULFOXIDE] : reported Kd = ?
Out: 719

---

- tested on: Insulin-like growth factor-binding protein 5 (Homo sapiens)
- assay: Dissociation constant in PBS binding to Insulin-like growth factor binding protein 5 at the residue Y86
readout type: Kd (µM)
Give the quantity in µM, number only.

In: Entry O=C(N[C@H](Cc1ccc(OP(=O)(O)O)cc1)C(=O)O)OCC1c2ccccc2-c2ccccc21 : reported Kd = ?
Out: 1720

---

- tested on: Insulin-like growth factor-binding protein 5 (Homo sapiens, UniProt P24593)
- assay: Dissociation constant in PBS binding to Insulin-like growth factor binding protein 5 at the residue K91
readout type: Kd (µM)
Give the quantity in µM, number only.

In: Entry O=C(N[C@H](Cc1ccc(OP(=O)(O)O)cc1)C(=O)O)OCC1c2ccccc2-c2ccccc21 : reported Kd = ?
Out: 2120

---

- tested on: Insulin-like growth factor-binding protein 5 (Homo sapiens, UniProt P24593)
- assay: Dissociation constant in DMSO binding to Insulin-like growth factor binding protein 5 at the residue S85
readout type: Kd
In your response, the unit should come after the numeric value.

In: Entry O=C(N[C@H](Cc1ccc(OP(=O)(O)O)cc1)C(=O)O)OCC1c2ccccc2-c2ccccc21 : reported Kd = ?
Out: 1380 µM

---

- tested on: Insulin-like growth factor-binding protein 5 (Homo sapiens, UniProt P24593)
- assay: Dissociation constant in PBS binding to Insulin-like growth factor binding protein 5 at the residue R87
readout type: Kd (mM)
Give the quantity in mM, number only.

In: Entry O=C(N[C@H](Cc1ccc(OP(=O)(O)O)cc1)C(=O)O)OCC1c2ccccc2-c2ccccc21 : reported Kd = ?
Out: 2.36

---

- tested on: Insulin-like growth factor-binding protein 5 (Homo sapiens)
- assay: Dissociation constant in binding to Insulin-like growth factor binding protein 5 at the residue Y50
readout type: pKd
In plain terms, pKd is the concentration in mol/L turned into minus its base-10 logarithm.

In: Entry C[S+](C)[O-] [DIMETHYL SULFOXIDE] : reported pKd = ?
Out: 0.19
